- Assay Remarks: Mouse blood levels
- Setup Conditions: mouse, blood, po, 100 mg/kg
Catalogue of molecules with associated concentration at 0.5 h
Just the number please, in ng/mL, no unit attached.

C/C=C\C1=C(C(=O)O)N2C(=O)C(NC(=O)[C@H](N)c3ccc(O)cc3)[C@H]2SC1 (some centres unmarked) : 33000

Q: So what does the record say about concentration at 0.5 h for C/C=C\C1=C(C(=O)O)N2C(=O)C(NC(=O)[C@H](N)c3cccc(O)c3)[C@H]2SC1 (some centres unmarked) ?
Result: 23000

====

- Assay Remarks: Mouse blood levels
- Setup Conditions: mouse, blood, po, 20 mg/kg
Quantity Name: concentration at 7 h (ng/mL)
Just the number please, in ng/mL, no unit attached.

Q: So what does the record say about concentration at 7 h for C/C=C\C1=C(C(=O)O)N2C(=O)C(NC(=O)[C@H](N)c3ccc(O)cc3)[C@H]2SC1 (stereo partly shown) [BMY-28100] ?
Result: 340
